systemUnderTest: wild-type Androgen Receptor (AR-wt) (Homo sapiens (Human))
protocolSummary: LNCaP-AR-wt ANT reporter assay (antagonist mode)
Assay type: cell-based
conditions: maximum % inhibition of R1881 control response over the tested concentration range; read-out: LNCaP-AR-wt ANT MAX % Inh
propertyMeasured: Emax (%)
Give bare numbers, in %.

Previously resolved entries follow.
* C=CCN1CCC(Oc2ccc(N3C(=S)N(c4cnc(C#N)c(C(F)(F)F)c4)C(=O)C34CCC4)cn2)CC1 [Cpd 88] | 102
* Cc1cc(N2C(=O)C3(CCC3)N(c3ccc(OC4CCSCC4)nc3)C2=S)cnc1C#N [Cpd 21] | 80.6
* CC(C)(C)OC(=O)N1CCC(Cn2cc3cc(N4C(=S)N(c5cnc(C#N)c(C(F)(F)F)c5)C(=O)C45CCC5)ccc3n2)CC1 [Cpd 122] | 98
* N#Cc1ncc(N2C(=O)C3(CCC3)N(c3ccc(C4=CC5CCC(C4)N5)cc3)C2=S)cc1C(F)(F)F (stereo not shown) [Cpd 116] | 102
* N#Cc1ncc(N2C(=O)C3(CCC3)N(c3ccc(OC4CCCO4)cc3)C2=S)cc1C(F)(F)F (stereo not shown) [Cpd 111] | 101

For each of the items listed, what is its Emax?
1. N#Cc1ncc(N2C(=O)C3(CCC3)N(c3ccc(OC4CCN(CCO)CC4)nc3)C2=S)cc1Cl [Cpd 79]
2. CNC(=O)N1CCN(Cc2ccc(N3C(=S)N(c4cnc(C#N)c(C(F)(F)F)c4)C(=O)C34CCC4)cc2)CC1 [Cpd 53]

*A*
1. 101
2. 102

----------
systemUnderTest: wild-type Androgen Receptor (AR-wt) (Homo sapiens (Human), UniProt P10275)
Sequence (P10275 whole entry): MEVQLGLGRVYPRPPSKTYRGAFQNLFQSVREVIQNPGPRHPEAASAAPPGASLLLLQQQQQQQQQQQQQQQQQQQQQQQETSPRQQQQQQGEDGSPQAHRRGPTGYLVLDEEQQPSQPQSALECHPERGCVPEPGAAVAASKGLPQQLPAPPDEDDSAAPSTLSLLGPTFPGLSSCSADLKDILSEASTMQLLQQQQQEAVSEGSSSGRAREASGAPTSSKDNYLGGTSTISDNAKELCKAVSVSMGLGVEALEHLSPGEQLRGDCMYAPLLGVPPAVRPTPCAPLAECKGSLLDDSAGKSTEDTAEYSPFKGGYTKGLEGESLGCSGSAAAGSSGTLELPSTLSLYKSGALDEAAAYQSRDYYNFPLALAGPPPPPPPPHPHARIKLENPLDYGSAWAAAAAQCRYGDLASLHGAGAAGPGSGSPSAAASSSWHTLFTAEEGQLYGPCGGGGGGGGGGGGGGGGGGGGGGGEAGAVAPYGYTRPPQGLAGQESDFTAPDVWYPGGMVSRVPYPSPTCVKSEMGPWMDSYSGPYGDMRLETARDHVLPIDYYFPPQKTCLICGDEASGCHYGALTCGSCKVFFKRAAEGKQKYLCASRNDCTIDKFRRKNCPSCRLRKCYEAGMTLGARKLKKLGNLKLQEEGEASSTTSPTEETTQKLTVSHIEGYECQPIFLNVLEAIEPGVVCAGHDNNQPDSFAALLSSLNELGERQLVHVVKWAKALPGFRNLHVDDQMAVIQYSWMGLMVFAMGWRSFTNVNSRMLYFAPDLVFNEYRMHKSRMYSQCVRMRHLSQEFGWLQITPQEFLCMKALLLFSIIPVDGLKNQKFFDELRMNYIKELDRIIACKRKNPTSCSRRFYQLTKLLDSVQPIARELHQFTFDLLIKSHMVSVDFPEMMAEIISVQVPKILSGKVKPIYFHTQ
protocolSummary: LNCaP-AR-wt AG reporter assay (agonist mode)
Assay type: cell-based
conditions: maximum % stimulation (agonist response) over the tested concentration range; read-out: LNCaP-AR-wt AG MAX % Stim
propertyMeasured: Emax (%)
Answers are plain numbers, in %.

• CC(C)(C)OC(=O)N1CCN(C(=O)c2ccc(N3C(=S)N(c4cnc(C#N)c(C(F)(F)F)c4)C(=O)C34CCC4)cc2)CC1 [Cpd 32] = 0.4
• CC(C)(C)OC(=O)N1C2CCC1C(F)C(Oc1ccc(N3C(=S)N(c4cnc(C#N)c(C(F)(F)F)c4)C(=O)C34CCC4)cc1)C2 (stereo not shown) [Cpd 85] = -0.1
• CN1CCC(Oc2ccc(N3C(=S)N(c4cnc(C#N)c(Cl)c4)C(=O)C34CCC4)cc2)CC1 [Cpd 24] = 0.6
• CN(C)C1CCC(Oc2ccc(N3C(=S)N(c4cnc(C#N)c(C(F)(F)F)c4)C(=O)C34CCC4)cc2)CC1 (stereo not shown) [Cpd 81] = 0.4

For each of the items listed, what is its Emax?
1. N#Cc1ncc(N2C(=O)C3(CCC3)N(c3ccc(OC4CCN(CC(F)(F)F)CC4)cc3)C2=S)cc1C(F)(F)F [Cpd 40]
2. N#Cc1ncc(N2C(=O)C3(CCC3)N(c3ccc(OC4CCS(=O)(=O)CC4)cc3)C2=S)cc1C(F)(F)F [Cpd 13]
3. N#Cc1ncc(N2C(=O)C3(CCC3)N(c3ccc(OC4CCSCC4)cc3)C2=S)cc1C(F)(F)F [Cpd 12]

*A*
0.2
0.5
0.5

----------
Tested on: rGABA-gated Cl− channel
protocolSummary: GABA-Gated Cl Channel Antagonist Radioligand Binding Assay
Parameters: species or system rat
conditions: 10 μM single point, [35S]-TBPS, cerebral cortex membrane homogenates
propertyMeasured: rGABA-gated Cl− channel % inh @10 μM (%)
Numbers only, in %.

Previously resolved entries follow.
• COCCn1cc2cc(N3C(=S)N(c4cnc(C#N)c(Cl)c4)C(=O)C34CCC4)ccc2n1 [Cpd 169] = 80.8
• CNC(=O)N1CCC(CNC(=O)c2ccc(N3C(=S)N(c4cnc(C#N)c(C(F)(F)F)c4)C(=O)C34CCC4)cc2)CC1 [Cpd 73] = 80.1
• N#Cc1ncc(N2C(=O)C3(CCC3)N(c3ccc4nn(C5CCNCC5)cc4c3)C2=S)cc1C(F)(F)F [Cpd 115] = 40.0
• COCCn1cc2cc(N3C(=S)N(c4cnc(C#N)c(C(F)(F)F)c4)C(=O)C34CCC4)ccc2n1 [Cpd 172] = 94.9
• C=CCN1CCC(Oc2ccc(N3C(=S)N(c4cnc(C#N)c(C(F)(F)F)c4)C(=O)C34CCC4)cn2)CC1 [Cpd 88] = 49.7

For each of the items listed, what is its rGABA-gated Cl− channel % inh @10 μM?
1. CN1CC(COc2ccc(N3C(=S)N(c4cnc(C#N)c(C(F)(F)F)c4)C(=O)C34CCC4)cc2)C1 [Cpd 59]
2. N#Cc1ncc(N2C(=O)C3(CCC3)N(c3ccc(CC4CCNCC4)cc3)C2=S)cc1C(F)(F)F [Cpd 234]
3. N#Cc1ncc(N2C(=O)C3(CCC3)N(c3ccc(O[C@H]4CCNC[C@@H]4F)cc3)C2=S)cc1C(F)(F)F (racemic) [Cpd 95]
4. CN1CCC(Sc2ccc(N3C(=S)N(c4cnc(C#N)c(C(F)(F)F)c4)C(=O)C34CCC4)cc2)CC1 [Cpd 242]
5. Cn1cc2cc(N3C(=S)N(c4cnc(C#N)c(C(F)(F)F)c4)C(=O)C34CCC4)ccc2n1 [Cpd 174]

*A*
1. 16.0
2. 57.4
3. 26.5
4. 60.2
5. 94.9

For each of the items listed, what is its rGABA-gated Cl− channel % inh @10 μM?
1. N#CCN1CCC(Oc2ccc(N3C(=S)N(c4cnc(C#N)c(Cl)c4)C(=O)C34CCC4)cn2)CC1 [Cpd 65]
2. N#CCN1CCC(Oc2ccc(N3C(=S)N(c4cnc(C#N)c(C(F)(F)F)c4)C(=O)C34CCC4)cc2)CC1 [Cpd 39]
3. CN1CCC(Cn2cc3cc(N4C(=S)N(c5cnc(C#N)c(C(F)(F)F)c5)C(=O)C45CCC5)ccc3n2)CC1 [Cpd 129]
4. N#Cc1ncc(N2C(=O)C3(CCC3)N(c3ccc(OC4CCN(CCO)CC4)nc3)C2=S)cc1Cl [Cpd 79]
5. N#Cc1ncc(N2C(=O)C3(CCC3)N(c3ccc(CN4CCNCC4)cc3)C2=S)cc1C(F)(F)F [Cpd 48]
6. N#Cc1ncc(N2C(=O)C3(CCC3)N(c3ccc(OC4CCN(C5CC5)CC4)cc3)C2=S)cc1C(F)(F)F [Cpd 36]
7. N#Cc1ncc(N2C(=O)C3(CCC3)N(c3ccc(CN4CCNCC4)cc3)C2=S)cc1Cl [Cpd 207]

*A*
67.2
86.2
64.0
11.5
37.2
96.2
27.9

For each of the items listed, what is its rGABA-gated Cl− channel % inh @10 μM?
1. COc1cc(N2C(=O)C3(CCC3)N(c3ccc(OC4CCNCC4)nc3)C2=S)cnc1C#N [Cpd 75]
2. COCCN1CCC(Oc2ccc(N3C(=S)N(c4cnc(C#N)c(C(F)(F)F)c4)C(=O)C34CCC4)cc2)CC1 [Cpd 38]
3. CN1CCC(Oc2ccc(N3C(=S)N(c4cnc(C#N)c(C(F)(F)F)c4)C(=O)C34CCC4)cn2)CC1 [Cpd 1]

*A*
1: −32.5; 2: 69.2; 3: 6.3
